# measured_target: Arap3-PH1 (Homo sapiens, UniProt Q8WWN8)
# Construct: first PH domain, residues 284-385, C-terminal 6xHis tag (pET22b), expressed in E. coli BL21(DE3)
# Sequence (Q8WWN8 284-385): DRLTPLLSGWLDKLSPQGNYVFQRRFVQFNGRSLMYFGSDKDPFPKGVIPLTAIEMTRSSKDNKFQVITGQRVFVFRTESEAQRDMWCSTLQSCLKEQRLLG
# assay_procedure: SPR (Biacore T200, CM5, protein immobilised), one-site fit
pKd: −log10 of the molar value.
experimental_endpoint: pKd

# compound, pKd
rows = [
    ("CCCC(=O)OC[C@H](COP(=O)(O)O[C@@H]1[C@H](O)[C@H](O)[C@@H](OP(=O)(O)O)[C@H](OP(=O)(O)O)[C@H]1O)OC(=O)CCC [diC4-PI(4,5)P2]", "~4.21"),
]

Fill in pKd for record CCCC(=O)OC[C@H](COP(=O)(O)O[C@H]1[C@H](O)[C@@H](OP(=O)(O)O)[C@H](OP(=O)(O)O)[C@@H](OP(=O)(O)O)[C@H]1O)OC(=O)CCC
~4.94
